assay: clinical; settings: human, in vivo, 40 mg, Vz/Fss
Readout name: Vd/F
Kindly write the number and append the unit.

What Vd/F value was documented for this molecule, CN(C)C/C=C/C(=O)Nc1cc2c(Nc3ccc(F)c(Cl)c3)ncnc2cc1O[C@H]1CCOC1 ?
2720 L

----------
assay: clinical; settings: human, in vivo, 10 mg, Cmax,ss
Readout name: Cmax (ng/mL)
Provide the reading as a plain figure in ng/mL.

What Cmax value was documented for this compound, CN(C)C/C=C/C(=O)Nc1cc2c(Nc3ccc(F)c(Cl)c3)ncnc2cc1O[C@H]1CCOC1 ?
3.99

----------
test: clinical; conditions: human, in vivo, 10 mg
Readout name: half-life (h)
Provide the reading as a plain figure in h.

What half-life value was documented for this compound, CN(C)C/C=C/C(=O)Nc1cc2c(Nc3ccc(F)c(Cl)c3)ncnc2cc1O[C@H]1CCOC1 ?
35.7
